procedureText: protein stability index of a GFP-peptide fusion (GPS, HEK-293T) (PSI 1-6); higher = more stable;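 further: 24-mer peptide tiles fused after GFP, lentivirally expressed, FACS-sorted into six equal bins by GFP/DsRed ratio, decoded by Illumina sequencing, PSI is the read-weighted mean bin number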
conditionParameters: treatment: MLN4924 1 uM, 8 h; c terminus: a fixed tail appended
observable: protein stability index
Answer field: number only, no words.

Take a look at these entries with their results.
{"sequenceContent": "PLQNQKILKRTGQRYEHGRTLKSY [ZNF649]", "resultNumber": 3.53}
{"sequenceContent": "ETNRLGRLINHSKCGNCQTKLHDI [KMT5A]", "resultNumber": 2.75}
{"sequenceContent": "FEKHRWPPVWYLKEEDHYQRARKE [RHOBTB2]", "resultNumber": 3.52}
{"sequenceContent": "MNDFGIKNMDQVAPVANSYRGTLK [ETS2]", "resultNumber": 4.02}
{"sequenceContent": "IFSFLPAPDRLRASASCSHWRECL [FBXO33]", "resultNumber": 2.07}

// sample GKRYCRGKVLGKGGFAKCYEMTDL [PLK2] , its protein stability index was 2.92

// sample SDVICDFPFQAMVQFHRHHGQEGS [GMPPB] , its protein stability index was 3.19

----------
procedureText: protein stability index of a GFP-peptide fusion (GPS, HEK-293T) (PSI 1-6); higher = more stable
conditionParameters: treatment: DMSO; c terminus: a fixed tail appended
Would you mind classing the entries by protein stability index? Ranges: low end = under 3, middle = from 3 up to 4, high end = 4 and over

query: Where would KLDQLDQDIENALSTSSSPSGTPT [DLC1] land among the classes by reported protein stability index?
result: high end

query: Where would EDHFPLLFSEASECMLLVFGIDVK [MAGEA10] land among the classes by reported protein stability index?
result: low end

query: Where would TVTSLKTKVGGTNPNGGSFEEVLS [TPD52L1] land among the classes by reported protein stability index?
result: middle

----------
procedureText: protein stability index of a GFP-peptide fusion (GPS, HEK-293T) (PSI 1-6); higher = more stable
conditionParameters: treatment: DMSO; c terminus: a fixed tail appended
observable: protein stability index
Answer field: number only, no words.

// sample DRMARPSGRSGHNTRGTGSSSSGV [CSNK1G3] , its protein stability index was 4.87

// sample GEAGWGAGEGRLGHKRKQPLPKRV [FOXJ1] , its protein stability index was 4.5

// sample YEMTDLTNNKVYAAKIIPHSRVAK [PLK2] , its protein stability index was 3.78

----------
procedureText: protein stability index of a GFP-peptide fusion (GPS, HEK-293T) (PSI 1-6); higher = more stable
conditionParameters: treatment: MLN4924 1 uM, 8 h; c terminus: a fixed tail appended
Returns one of y or n; y when protein stability index is >= 4.

{"sequenceContent": "KESMSEADRAQKMDGESEEEQESV [EHMT1]", "labelClass": "y"}
{"sequenceContent": "NIKIWLSLRSYLKRRGPQRSVDVV [PHTF1]", "labelClass": "n"}

query: # check: protein stability index of AHHRSGAQVFPESPESESDHEHEE [GNAS] is greater than or equal to 4
result: y

query: # check: protein stability index of QPQALLVDGDQSKILISGLEPSTP [TNXB] is greater than or equal to 4
result: y

query: # check: protein stability index of `TPAPPLWIGLFLVATGSQQSLAQP` is greater than or equal to 4
result: n

query: # check: protein stability index of YFALRKILKQLIADVTLDPETAHP [TRIM39] is greater than or equal to 4
result: y

query: # check: protein stability index of LRNLSDAATKQEGMEGLLGTLVQL [CTNNB1] is greater than or equal to 4
result: n

query: # check: protein stability index of LPVNSPMNKGDTEVMKCIVEVISD [CHGA] is greater than or equal to 4
result: n

query: # check: protein stability index of LYVDSLFFLRGRLDQLLRHVMNPL [PRAME] is greater than or equal to 4
result: n

query: # check: protein stability index of FMYNLVQFLGFSWIFVNLTVRFCI [HACD3] is greater than or equal to 4
result: n

query: # check: protein stability index of EASSSPPEGSQDRNTSWGVVQEPP [TLE6] is greater than or equal to 4
result: y

query: # check: protein stability index of PSCQETRDYAPPSRGYAYRDNGHS [RBMY1A1] is greater than or equal to 4
result: y

query: # check: protein stability index of KHGFSWAVPKFMKRIKVPDYKDRS [DLC1] is greater than or equal to 4
result: n

query: # check: protein stability index of VMLKRIHSLYRRTGASFQKAQQEF [SCAMP3] is greater than or equal to 4
result: n

query: # check: protein stability index of ALARDLLSETADPFFVLNSDVICD [GMPPB] is greater than or equal to 4
result: n

query: # check: protein stability index of NNEAFMNQEITKAFHVRRTNRVKE [RHOBTB2] is greater than or equal to 4
result: y

query: # check: protein stability index of VCSVRGGEGRSRGSANDYKDTLGK [KRT71] is greater than or equal to 4
result: y

query: # check: protein stability index of IYLLRRQIRTVIQYQTVRYDILPL [CTDNEP1] is greater than or equal to 4
result: n
